Origin of the recorded values: PubChem BioAssay (NCI)

System: SW-620 colon
PROCEDURE_DETAILS: NCI-60 one-dose screen, 48 h
TEST_CONDITIONS: 10 µM unless noted
The panel holds about 83,000 compounds, 20% with a hit somewhere; the sample as a whole holds those more often. Calls of active or inactive are those of the source. Rule for the calls: active = growth percent below 10; inactive = the rest.
Possible outcomes: active, inactive

INSERT INTO assay_data (compound, system_under_test, assigned_label) VALUES
  ('O=S(=O)(NCCCNc1nccc(-c2[nH]c(-c3ccccc3)nc2-c2ccc(F)c(O)c2)n1)c1cccc2ccccc12', 'SW-620 colon', 'inactive'),
  ('C#C[C@]1(O)CC[C@H]2[C@@H]3CC=C4c5sc(N(C)c6ccccc6)nc5CC[C@]4(C)[C@H]3CC[C@@]21C', 'SW-620 colon', 'inactive'),
  ('C#C[C@]1(O)CC[C@H]2[C@@H]3CC=C4c5sc(Nc6cc(C)cc(C)c6)nc5CC[C@]4(C)[C@H]3CC[C@@]21C', 'SW-620 colon', 'active'),
  ('CCOC(=O)C1=C(C)NC(C)=C(C(=O)OC(C)C)C1c1cccc(C#N)c1 (centres undefined)', 'SW-620 colon', 'inactive');
